The measured values listed here are drawn from patent US11026944B2.

Assay: Multiple ascending dose study (002 Study): plasma PK
Format: in vivo, human
Conditions: human, oral; plasma at 10 h, Day 1, 10 mg; read-out: C10 Mean(SD)
Quantity name: concentration at 10 h (ng/mL)

- Compound: "Cc1ncc(OC[C@@]2(c3cccc(F)c3)C[C@H]2C(=O)Nc2ccc(F)cn2)c(C)n1 [Compound A]"
  Quantity name: "concentration at 10 h"
  Value: 7.72

---

Experiment: Multiple ascending dose study (002 Study): plasma PK
Type: in vivo, human
Settings: human, plasma, oral, 25 mg, Day 14, 25 mg once daily for 14 days; read-out: t1/2 Mean(SD) (converted)
Quantity name: half-life (h)

- Molecule smiles: "Cc1ncc(OC[C@@]2(c3cccc(F)c3)C[C@H]2C(=O)Nc2ccc(F)cn2)c(C)n1"
  Value: 50.6

---

Assay: Multiple ascending dose study (002 Study): plasma PK
Assay type: in vivo, human
Details: human, oral; plasma at 10 h, Day 1, 75 mg; read-out: C10 Mean(SD)
Quantity name: concentration at 10 h (ng/mL)

- Molecule smiles: "Cc1ncc(OC[C@@]2(c3cccc(F)c3)C[C@H]2C(=O)Nc2ccc(F)cn2)c(C)n1"
  Value: 44.2
